All values here come from patent US20240239763A1.

assay: Pharmacokinetics in SD rats in vivo; conditions: male, Sprague-Dawley, rat, plasma, 2.89 mg/kg, 2.89 mpk/intravenous injection, read-out: Vdss
reported_metric: Vd
Write your answer as a measured quantity: the number, then the unit.

I would be grateful if you could share the reported Vd for `N#Cc1sc(-c2ccc(C(=O)O)c(O)c2)c2c1CCC(F)(F)C2` .
0.32 L/kg

---

assay: Hepatic metabolic stability (HMS) in human liver cells; assay type: in vitro ADME; settings: hepatocytes (liver cells) in suspension, read-out: Hepatic intrinsic clearance rates
reported_metric: CLint scaled at 1 µM (mL/min/kg)
Give just the numeric value; mL/min/kg need not be written.

I would be grateful if you could share the reported CLint scaled at 1 µM for `N#Cc1sc(-c2ccc(C(=O)O)c(O)c2)c2c1CCC(F)(F)C2` .
31.8
